Values compiled from patent US9598459B2.

Recorded measurements of EC50, one per entry
- Tested on: Norwalk virus (replicon) GT1
- assay_overview: Norwalk virus replicon (GT1) in HG23, RNA hybridization
- Type: cell-based, Norwalk virus (human norovirus)
- assay_context: Norovirus/1968/US, HG23, Replicon
Quick note: give the figure in µM, leave out the unit.

CC#CC1(O)CCC2C3CCC4=CC(=NNC(N)=S)CCC4=C3C(c3ccc4c(c3)OCO4)CC21C.CC#CC1(O)CCC2C3CCC4=CC(=O)CCC4=C3C(c3ccc4c(c3)OCO4)CC21C.CC(C)=O.CCO.O (centres unmarked) [PT155]: 26

Task: Item under review: C[C@@]1(O)[C@H](O)[C@@H](CO)O[C@H]1n1ccc(N)nc1=O [RS-446] . Reported EC50?
Result: 6.9

====

Recorded measurements of CC50, one per entry
- assay_overview: Cytotoxicity on primary human foreskin fibroblasts
- assay_context: human, primary HFF-1 human foreskin fibroblasts, CC50

Task: Item under review: Nc1ccn(C[C@@H](CO)OCP(=O)(O)O)c(=O)n1 . Reported CC50?
Result: > 150 µM

Task: Now this one: CC#C[C@]1(O)CC[C@H]2[C@@H]3CCC4=CC(=O)CCC4=C3[C@@H](c3ccc4c(c3)OCO4)C[C@@]21C
Result: > 150 µM

====

- System: OM-10.1 cells
- assay_overview: Toxicity in OM-10.1 (Cell Titer 96)
- assay_context: read-out: TC 50%; OM-10.1
quantity_measured: CC50

CC#CC1(O)CCC2C3CCC4=CC(=NNC(N)=S)CCC4=C3C(c3ccc4c(c3)OCO4)CC21C.CC#CC1(O)CCC2C3CCC4=CC(=O)CCC4=C3C(c3ccc4c(c3)OCO4)CC21C.CC(C)=O.CCO.O (centres unmarked): > 100 µM

Continue with the next compound.
Task: Item under review: O=c1c2ccccc2n2nnc3ccc(NCCCN4CCN(CCCNc5ccc6nnn7c8ccccc8c(=O)c5c67)CC4)c1c32 . Reported CC50?
Result: > 1 µM

====

- System: Respiratory syncytial type A A2 (VR-1540)
- assay_overview: Respiratory syncytial virus type A antiviral screen in MA-104
- Format: cell-based
- assay_context: Respiratory syncytial type A A2, MA-104; read-out: EC50 NR
pEC50: −log10 of the molar value.
quantity_measured: pEC50

Task: Item under review: CC#CC1(O)CCC2C3CCC4=CC(=NNC(N)=S)CCC4=C3C(c3ccc4c(c3)OCO4)CC21C.CC#CC1(O)CCC2C3CCC4=CC(=O)CCC4=C3C(c3ccc4c(c3)OCO4)CC21C.CC(C)=O.CCO.O (stereo not shown) . Reported pEC50?
Result: < 4.77

====

- assay_overview: in vitro
- assay_context: African green monkey, Cytotoxicity CC50
quantity_measured: CC50 (µM)
Quick note: give the figure in µM, leave out the unit.

Task: Item under review: Cc1cn([C@H]2C[C@H](N=[N+]=[N-])[C@@H](CO)O2)c(=O)[nH]c1=O [AZT, 3′-azido-3′-deoxythymidine, reference compound] . Reported CC50?
Result: 56

Task: Now this one: CC#C[C@]1(O)CC[C@H]2[C@@H]3CCC4=CC(=O)CCC4=C3[C@@H](c3ccc4c(c3)OCO4)C[C@@]21C
Result: 44.3

====

- Tested on: PBMC
- assay_context: human
quantity_measured: CC50

Task: Item under review: Cc1cn([C@H]2C[C@H](N=[N+]=[N-])[C@@H](CO)O2)c(=O)[nH]c1=O [AZT, 3′-azido-3′-deoxythymidine, reference compound] . Reported CC50?
Result: > 100 µM
